// provenance: patent US20070259923A1

measurementNotes: Determination of brain to plasma ratio in rat
Assay type: in vivo
experimentalContext: brain and plasma, female Sprague Dawley rats, read-out: Brain/Plasma Ratio of compound in Rat
readoutType: Kp

{"compound": "Cn1c(-c2cccnc2)nnc1N1CCC[C@@H]1c1cc(-c2cccc(C#N)c2)on1 [Example 12.6]", "measuredResult": 0.05}
{"compound": "Cc1cc(-c2nnc(N3CCC[C@@H]3c3cc(-c4cccc(C#N)c4)on3)n2C)ccn1 [Example 12.4]", "measuredResult": 0.06}

====

testTarget: human mGluR5d (Homo sapiens, UniProt P41594)
Construct: the IP3 assay names GHEK cells stably expressing human mGluR5d
Sequence (P41594 21-942 isoform P41594-3 limits assumed): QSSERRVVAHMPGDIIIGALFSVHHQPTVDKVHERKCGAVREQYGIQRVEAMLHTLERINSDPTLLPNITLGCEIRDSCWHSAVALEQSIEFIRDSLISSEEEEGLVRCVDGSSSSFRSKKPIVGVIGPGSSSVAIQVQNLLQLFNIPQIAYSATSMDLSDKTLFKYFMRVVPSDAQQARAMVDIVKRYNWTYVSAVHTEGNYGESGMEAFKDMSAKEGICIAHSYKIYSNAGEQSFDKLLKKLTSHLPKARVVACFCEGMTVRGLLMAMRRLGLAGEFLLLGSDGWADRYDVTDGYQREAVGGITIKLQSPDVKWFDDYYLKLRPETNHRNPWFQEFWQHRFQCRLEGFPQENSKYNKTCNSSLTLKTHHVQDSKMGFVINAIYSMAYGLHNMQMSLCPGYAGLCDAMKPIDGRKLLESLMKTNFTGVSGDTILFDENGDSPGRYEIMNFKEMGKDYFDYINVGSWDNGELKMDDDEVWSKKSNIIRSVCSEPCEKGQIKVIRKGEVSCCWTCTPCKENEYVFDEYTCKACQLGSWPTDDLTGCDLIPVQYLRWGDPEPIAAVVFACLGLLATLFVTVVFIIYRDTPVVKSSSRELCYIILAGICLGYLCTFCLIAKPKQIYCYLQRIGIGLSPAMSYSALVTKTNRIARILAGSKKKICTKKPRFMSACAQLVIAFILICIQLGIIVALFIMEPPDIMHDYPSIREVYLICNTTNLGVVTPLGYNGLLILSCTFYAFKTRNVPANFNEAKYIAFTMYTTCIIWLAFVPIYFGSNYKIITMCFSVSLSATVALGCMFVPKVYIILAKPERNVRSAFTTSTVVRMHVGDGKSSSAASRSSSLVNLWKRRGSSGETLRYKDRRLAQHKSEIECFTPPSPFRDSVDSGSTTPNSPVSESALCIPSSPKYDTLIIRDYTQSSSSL
measurementNotes: FLIPR assay, mGluR5 antagonism (intracellular calcium mobilization)
experimentalContext: cells expressing human mGluR5d; read-out: FLIPR hmGluR5d
readoutType: IC50 (nM)

a. Cc1cc(-c2nnc(N3CCC[C@@H]3c3cc(-c4cccc(C#N)c4)on3)n2C)ccn1
b. Cn1c(-c2cccnc2)nnc1N1CCC[C@@H]1c1cc(-c2cccc(C#N)c2)on1
Between these two entries, a and b , state which has the higher IC50. Kindly state the label of the option you pick.
b
(b: 86 nM, a: 47 nM)
